Molecular target: MMP-2 (Homo sapiens)
Sequence (P08253 110-660): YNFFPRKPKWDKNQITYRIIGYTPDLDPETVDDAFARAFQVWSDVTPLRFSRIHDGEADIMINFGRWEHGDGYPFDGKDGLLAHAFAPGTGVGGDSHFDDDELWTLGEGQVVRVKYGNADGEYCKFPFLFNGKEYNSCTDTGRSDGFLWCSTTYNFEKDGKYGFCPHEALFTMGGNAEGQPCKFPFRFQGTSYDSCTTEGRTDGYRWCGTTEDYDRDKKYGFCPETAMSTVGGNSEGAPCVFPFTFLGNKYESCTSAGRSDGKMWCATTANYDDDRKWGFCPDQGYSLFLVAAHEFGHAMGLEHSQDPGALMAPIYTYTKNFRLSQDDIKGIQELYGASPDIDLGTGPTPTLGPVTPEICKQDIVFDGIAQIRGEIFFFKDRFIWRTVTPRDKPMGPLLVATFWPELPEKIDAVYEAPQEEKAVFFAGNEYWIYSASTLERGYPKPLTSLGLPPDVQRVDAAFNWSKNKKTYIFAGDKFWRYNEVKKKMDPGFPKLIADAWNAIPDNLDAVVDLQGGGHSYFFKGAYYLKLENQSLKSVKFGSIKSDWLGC
Test: biochemical
Below: a set of entries, each annotated with reported Ki.
measure: Ki (µM)

[[record]]
molecule = "O=S(=O)(CCCC1CS1)c1ccc(Oc2ccccc2)cc1 (centres unmarked)"
quantitative_readout = 4.3

[[record]]
molecule = "O=S(=O)(CCC1CS1)c1ccc(Oc2ccccc2)cc1 (centres unmarked)"
quantitative_readout = 4.7

